Assignment: determine reported pIC50 for the given compounds.
Structures can show the parent of a compound that is named as a salt.
// pIC50 here means minus log10 of the molar concentration (mol/L)

Tested on MAO-B (Homo sapiens (Human), UniProt P27338): NC/C(=C/F)COc1ccc2c(n1)CN(C1CC1)C2=O [Trifluoroacetate of Compound 25] . Observed pIC50: 4.89

Tested on MAO-B (Homo sapiens (Human), UniProt P27338): NC/C(=C/F)COc1ccc2c(c1)CCN(C1CC1)C2=O [Hydrochloride of Compound 34] . Observed pIC50: 5.08

Tested on MAO-B (Homo sapiens (Human), UniProt P27338): Cl.NC/C(=C/F)COc1cnc2c(c1)CN(C1CC1)C2=O [Hydrochloride of Compound 28] . Observed pIC50: 4.70

Tested on MAO-B (Homo sapiens (Human), UniProt P27338): NC/C(=C/F)COc1cc2c(cn1)C(=O)N(C1CC1)C2 [Trifluoroacetate of Compound 33] . Observed pIC50: 5.07

Tested on MAO-B (Homo sapiens (Human), UniProt P27338): Cl.NC/C(=C\F)COc1cc2c(cn1)C(=O)N(C1CC1)C2 [Hydrochloride of Compound 21] . Observed pIC50: 4.85

Tested on MAO-B (Homo sapiens (Human), UniProt P27338): NC/C(=C\F)COc1ccc2c(n1)CCN(C1CC1)C2=O [Trifluoroacetate of Compound 26] . Observed pIC50: 5.06

Tested on MAO-B (Homo sapiens (Human), UniProt P27338): NC/C(=C\F)COc1ccc2c(c1)CCN(C1CC1)C2=O [Hydrochloride of Compound 5] . Observed pIC50: 5.20

Tested on MAO-B (Homo sapiens (Human), UniProt P27338): NC/C(=C\F)COc1ccc2c(n1)CN(C1CC1)C2=O [Trifluoroacetate of Compound 24] . Observed pIC50: 4.43

---

Assayed system: rhVAP-1 (Homo sapiens (Human), UniProt Q16853)
Sequence (Q16853 whole entry): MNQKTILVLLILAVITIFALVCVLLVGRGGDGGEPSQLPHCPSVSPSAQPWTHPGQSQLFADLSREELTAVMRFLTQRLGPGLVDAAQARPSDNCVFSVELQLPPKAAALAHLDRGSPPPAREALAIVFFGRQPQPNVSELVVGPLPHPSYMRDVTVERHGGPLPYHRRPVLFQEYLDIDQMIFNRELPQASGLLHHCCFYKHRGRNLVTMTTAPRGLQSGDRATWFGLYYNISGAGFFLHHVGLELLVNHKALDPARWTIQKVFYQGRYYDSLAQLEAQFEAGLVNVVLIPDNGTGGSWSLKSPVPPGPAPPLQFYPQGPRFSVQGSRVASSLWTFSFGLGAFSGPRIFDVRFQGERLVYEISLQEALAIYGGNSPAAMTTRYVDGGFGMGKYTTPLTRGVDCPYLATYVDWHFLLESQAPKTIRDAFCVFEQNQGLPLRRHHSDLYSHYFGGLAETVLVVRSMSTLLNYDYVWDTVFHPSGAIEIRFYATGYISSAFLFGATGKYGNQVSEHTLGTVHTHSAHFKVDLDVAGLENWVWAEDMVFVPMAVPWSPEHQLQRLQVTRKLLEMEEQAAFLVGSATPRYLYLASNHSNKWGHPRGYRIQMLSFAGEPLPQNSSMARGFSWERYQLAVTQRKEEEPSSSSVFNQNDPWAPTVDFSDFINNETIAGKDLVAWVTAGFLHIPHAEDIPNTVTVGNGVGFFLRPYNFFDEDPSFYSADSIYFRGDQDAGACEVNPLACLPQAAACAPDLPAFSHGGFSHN
Assay notes: Inhibition activity of the compounds on the rhVAP-1 enzyme (Amplex Red/HRP fluorescence, benzylamine substrate)
Assay type: biochemical
Condition notes: 30 minutes pre-incubation at 37° C.
Where a name gives a salt, the structure may show the parent alone.
Endpoint: IC50 (nM)
Quick note: give the figure in nM, leave out the unit.

// IC50 lookup, compound = NC/C(=C\F)COc1cnc2c(c1)CN(C1CC1)C2=O [Hydrochloride of Compound 27] , result: 16

// IC50 lookup, compound = NC/C(=C/F)COc1ccc2c(c1)CCN(C1CC1)C2=O [Hydrochloride of Compound 34] , result: 6

// IC50 lookup, compound = Cl.NC/C(=C/F)COc1ccc2c(c1)CN(C1CC1)C2=O [Hydrochloride of Compound 29] , result: 25

// IC50 lookup, compound = Cl.NC/C(=C\F)COc1ccc2c(c1)CN(C1CC1)C2=O [Hydrochloride of Compound 16] , result: 24

// IC50 lookup, compound = NC/C(=C\F)COc1cnc2c(c1)CCNC2=O [Hydrochloride of Compound 8] , result: 30

// IC50 lookup, compound = NC/C(=C/F)COc1cc2c(cn1)C(=O)N(C1CC1)CC2 [Trifluoroacetate of Compound 32] , result: 11

// IC50 lookup, compound = NC/C(=C/F)COc1ccc2c(c1)C(=O)N(C1CC1)C2=O [Hydrochloride of Compound 31] , result: 11

// IC50 lookup, compound = NC/C(=C\F)COc1ccc2c(n1)CCN(C1CC1)C2=O [Trifluoroacetate of Compound 26] , result: 51

// IC50 lookup, compound = CCN(CC)C(=O)c1ccc(OC/C(=C/F)CN)cn1.Cl [Hydrochloride of Compound 19] , result: 21

// IC50 lookup, compound = NC/C(=C/F)COc1ccc2c(n1)CN(C1CC1)C2=O [Trifluoroacetate of Compound 25] , result: 25

// IC50 lookup, compound = NC/C(=C\F)COc1ccc2c(c1)CCN(C1CC1)C2=O [Hydrochloride of Compound 5] , result: 18

// IC50 lookup, compound = NC/C(=C/F)COc1ccc2c(n1)CCN(C1CC1)C2=O [Trifluoroacetate of Compound 23] , result: 14

// IC50 lookup, compound = NC/C(=C\F)COc1ccc2c(n1)CN(C1CC1)C2=O [Trifluoroacetate of Compound 24] , result: 24

// IC50 lookup, compound = NC/C(=C\F)COc1ccc2c(c1)C(=O)N(C1CC1)C2=O [Hydrochloride of Compound 30] , result: 32

// IC50 lookup, compound = Cl.NC/C(=C/F)COc1cnc2c(c1)CN(C1CC1)C2=O [Hydrochloride of Compound 28] , result: 14

// IC50 lookup, compound = Cl.NC/C(=C\F)COc1cc2c(cn1)C(=O)N(C1CC1)C2 [Hydrochloride of Compound 21] , result: 21

// IC50 lookup, compound = NC/C(=C/F)COc1cc2c(cn1)C(=O)N(C1CC1)C2 [Trifluoroacetate of Compound 33] , result: 14

---

Assignment: determine reported pIC50 for the given compounds.
Assayed system: MAO-A (Homo sapiens (Human))
Sequence (P21397 whole entry): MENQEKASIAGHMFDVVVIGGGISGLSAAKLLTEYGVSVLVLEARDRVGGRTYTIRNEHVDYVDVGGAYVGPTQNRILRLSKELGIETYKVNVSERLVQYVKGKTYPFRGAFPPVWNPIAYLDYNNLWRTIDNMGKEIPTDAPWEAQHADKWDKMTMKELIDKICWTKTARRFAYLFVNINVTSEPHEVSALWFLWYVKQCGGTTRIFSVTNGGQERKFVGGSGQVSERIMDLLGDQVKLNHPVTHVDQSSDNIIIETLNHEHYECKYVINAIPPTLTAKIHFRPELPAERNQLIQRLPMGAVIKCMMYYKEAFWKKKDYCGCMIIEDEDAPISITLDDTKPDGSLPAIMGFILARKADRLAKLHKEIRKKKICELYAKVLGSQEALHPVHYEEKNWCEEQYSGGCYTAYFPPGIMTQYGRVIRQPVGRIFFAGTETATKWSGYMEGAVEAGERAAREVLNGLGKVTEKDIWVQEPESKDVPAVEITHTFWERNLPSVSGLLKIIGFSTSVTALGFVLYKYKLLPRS
Assay notes: Selectivity of the compounds for MAO-A enzyme (MAO-Glo)
Type: biochemical
Condition notes: 60 minutes pre-incubation at 37° C.
Source text: 2. Selectivity of the Compounds for MAO-A/B Enzymes Microplate reader (Perkin Elmer, Envision), 384 well plates (Perkin Elmer), centrifuge (Eppendorf), MAO-Glo™ (Promega), MAO-A (Active Motif) and MAO-B (Active Motif). […] V: the fluorescence change rate; Ft: fluorescence reading at the time point t; F0: fluorescence reading at the time point 0; Time: time period t; Vcmpd: the fluorescence change rate of the test compound; Vmax: the Max well fluorescence change rate. […]
Structures can show the parent of a compound that is named as a salt.
// pIC50 here means minus log10 of the molar concentration (mol/L)

// pIC50 lookup, compound = NC/C(=C\F)COc1ccc2c(c1)CCN(C1CC1)C2=O [Hydrochloride of Compound 5] , result: 5.89

// pIC50 lookup, compound = NC/C(=C/F)COc1ccc2c(n1)CCN(C1CC1)C2=O [Trifluoroacetate of Compound 23] , result: 5.00

---

Assayed system: rhVAP-1 (Homo sapiens (Human), UniProt Q16853)
Assay notes: Time-dependent inhibition assay for the rhVAP-1 enzyme
Format: biochemical
Condition notes: pre-incubation 0 minute
Endpoint: pIC50
// pIC50 here means minus log10 of the molar concentration (mol/L)

// pIC50 lookup, compound = NC/C(=C/F)COc1ccc2c(n1)CCN(C1CC1)C2=O [Trifluoroacetate of Compound 23] , result: 6.69

---

Assay notes: Stability test in human liver microsome
Format: in vitro ADME
Condition notes: human liver microsome 0.5 mg protein/mL, compound 1 μM, β-NADPH
Endpoint: ClH

CCN(CC)C(=O)c1ccc(OC/C(=C/F)CN)cn1.Cl [Hydrochloride of Compound 19]
→0 mL/min/kg
NC/C(=C\F)COc1ccc2c(n1)CN(C1CC1)C2=O [Trifluoroacetate of Compound 24]
→0 mL/min/kg
Cl.NC/C(=C/F)COc1cnc2c(c1)CN(C1CC1)C2=O [Hydrochloride of Compound 28]
→0 mL/min/kg

Sourced from patent US11649233B2
